Data origin, for the record: PubChem BioAssay AID1996

Please provide measured solubility kinetic for the entries that follow.
test_conditions: buffer; pH 7.4; 200.0 µM

Look over these answered cases.
{"molecule": "COc1ccc(C(CNC(=O)CN(C)S(=O)(=O)c2ccc(C)cc2)N2CCCC2)cc1 (centres undefined)", "solubility kinetic": "> 66.8 µg/mL"}
{"molecule": "CC(=O)c1ccc(OCC(=O)NCc2ccc(F)cc2)cc1", "solubility kinetic": "> 45.2 µg/mL"}
{"molecule": "CC1(C)CC(=O)N(c2cccc(Cl)c2)C(=O)C1", "solubility kinetic": "> 37.8 µg/mL"}

# next molecule below
Q: Name the reported solubility kinetic value associated with the molecule N#Cc1cc([N+](=O)[O-])ccc1NC(=O)COC(=O)C1CCC(=O)N1 (centres undefined)
A: > 49.8 µg/mL

====

Please provide measured solubility kinetic for the entries that follow.
test_conditions: buffer; pH 7.4; 200.0 µM

// batch mode: one solubility kinetic value per listed entry
1. CCCc1nnc(SCC(=O)NC2CCCCC2)n1CCOC
2. CC(C)N1CC(COc2ccccc2Cl)OC1=O (stereo not drawn)
3. COc1cccc(C(=O)N2CCC(C(=O)N3CCN(C)CC3)CC2)c1

A:
1. > 51.1 µg/mL
2. > 40.5 µg/mL
3. > 51.8 µg/mL

====

test_conditions: buffer; pH 7.4; 200.0 µM
Please provide measured solubility kinetic for the entries that follow.

{"compound": "CCN(CC)CCN(C(=O)/C=C/c1cccs1)c1nc2ccc(Cl)cc2s1.Cl", "test_readout": "solubility kinetic", "test_value": "< 0.3 µg/mL"}
{"compound": "O=C1OC(N2C(=O)CC[C@H]2C(=O)NCC2CCCO2)c2ccccc21 (some centres undefined)", "test_readout": "solubility kinetic", "test_value": "> 51.7 µg/mL"}
{"compound": "Clc1ccccc1NC1=NCCCS1", "test_readout": "solubility kinetic", "test_value": "> 34 µg/mL"}
{"compound": "CCCC1=[N+](CC(C)=O)CCn2c(C)ccc21.[Br-]", "test_readout": "solubility kinetic", "test_value": "> 47 µg/mL"}
{"compound": "Cc1nc(NC(=O)COC(=O)C2CC2C)c(Cl)cc1Cl (centres undefined)", "test_readout": "solubility kinetic", "test_value": "> 47.6 µg/mL"}

// batch mode: one solubility kinetic value per listed entry
1. CCOC(=O)c1ccc(NC(=S)NCc2cccnc2)cc1
2. CN(C)c1ccc(P(=O)(OC2CCCCC2)C(O)c2ccccn2)cc1 (centres undefined)
3. Cc1ccc(C(=O)NC(=S)Nc2ccc3[nH]c(=O)[nH]c3c2)c(C)c1
4. Fc1ccc(-n2c(=S)[nH]c3cccnc32)cc1

A:
> 47.3 µg/mL
> 56.2 µg/mL
< 0.2 µg/mL
> 36.8 µg/mL

====

test_conditions: buffer; pH 7.4; 200.0 µM
Please provide measured solubility kinetic for the entries that follow.

Look over these answered cases.
{"compound": "CCc1ccc(NC(=S)N2CCN(C)CC2)cc1", "test_readout": "solubility kinetic", "test_value": "> 39.5 µg/mL"}
{"compound": "COc1ccc(S(=O)(=O)NCCc2ccccn2)cc1", "test_readout": "solubility kinetic", "test_value": "> 43.9 µg/mL"}
{"compound": "FC(F)Oc1ccc(NC(=S)NCc2ccco2)cc1Cl", "test_readout": "solubility kinetic", "test_value": "> 49.9 µg/mL"}

// batch mode: one solubility kinetic value per listed entry
1. S=C(Nc1cccnc1)N1CCc2ccccc21
2. COC(=O)c1ccc(NC(=O)C2C3C=CC(C3)C2C(=O)O)cc1 (stereo unspecified)
3. CC(C(=O)Nc1ccc(C#N)cc1)N1CCN(C(=O)C2CC2)CC1 (stereo unspecified)

A:
1: > 38.3 µg/mL; 2: > 47.3 µg/mL; 3: > 49 µg/mL
